In this section, each of the compounds is paired with its reported TD50.
# PROCEDURE_TEXT: Neurotoxicity in oral dosed Sprague-Dawley albino rat assessed as motor impairment by rotarod test
# Type: toxicity, organism-based
# RECORDED_CONDITIONS: in vivo

Example results:
compound="O=C(OCc1ccccc1)N1CCN(CN2C(=O)NC(c3ccccc3)(C3CC3)C2=O)CC1 (stereo not drawn)" measured_parameter=TD50 value_observed="> 60 mg/kg"
compound="CC(c1ccccc1)N1CCN(CN2C(=O)NC(c3ccccc3)(C3CC3)C2=O)CC1 (stereo not drawn)" measured_parameter=TD50 value_observed="> 200 mg/kg"
compound="O=C1NC(c2ccccc2)(C2CC2)C(=O)N1CN1CCOCC1 (stereo not drawn)" measured_parameter=TD50 value_observed="< 150 mg/kg"
compound="CCC1(C)CC(=O)NC1=O (stereo not drawn) [ETHOSUXIMIDE]" measured_parameter=TD50 value_observed="> 500 mg/kg"
compound="O=C1NC(=O)C(c2ccc(Cl)cc2)(C2CC2)N1 (stereo not drawn)" measured_parameter=TD50 value_observed="> 135 mg/kg"
compound="O=C1NC(c2ccccc2)(C2CC2)C(=O)N1CN1CCN(CCc2ccccc2)CC1 (stereo not drawn)" measured_parameter=TD50 value_observed="> 100 mg/kg"

I would be grateful if you could share the reported TD50 for O=C1NC(=O)C(c2ccccc2)(c2ccccc2)N1 [PHENYTOIN] . > 1000 mg/kg

TD50 lookup needed for O=C1NC(=O)C(c2ccccc2)(C2CC2)N1 (stereo not drawn) , thanks. 77.6 mg/kg

Ref: ChEMBL document CHEMBL1833945
